Every entry's value here was drawn from PubChem BioAssay (NCI).

# System: RPMI-8226 leukemia
# Test: NCI tumour cell line growth inhibition, 48 h
Quick reference for TGI among some compounds
Endpoint: TGI

| Compound | Endpoint | Experimental result |
| --- | --- | --- |
| C[C@H]1Oc2cc(cnc2N)-c2c(nn(C)c2C#N)CN(C)C(=O)c2ccc(F)cc21 | TGI | > 100 µM |
| COC(=O)c1c(O)ccc2c1c1c(n2Cc2ccc(Cl)cc2Cl)C(=O)c2ccccc2C1 | TGI | 49 µM |
| CS(=O)(=O)CCCn1c(=O)c(Oc2ccc(F)cc2F)cc2cnc(NC3CCOCC3)nc21 | TGI | > 25 µM |
| CCOC(=O)c1cc(C2(O)CCN(CC(C)CC)C2=O)c(-c2cc(C)no2)[nH]1 (centres undefined) | TGI | > 100 µM |
| Nc1nc2c(ncn2Cc2ccc(CO)cc2)c(=O)[nH]1 | TGI | > 100 µM |
| CC(C)(C)C(=O)OC(N)/C=C/c1ccccc1 (centres undefined) | TGI | > 100 µM |
| CC(=O)Nc1ccc(-c2nc3cc(Cl)ccc3o2)cc1 | TGI | > 50 µM |
| O=C(CC(O)(C(F)(F)F)C(F)(F)F)c1cc(CC(=O)C(O)(C(F)(F)F)C(F)(F)F)cc(CC(=O)C(O)(C(F)(F)F)C(F)(F)F)c1 | TGI | > 10 µM |
| COc1cc(CNCCCN2C(=O)c3ccc4c5c(ccc(c35)C2=O)C(=O)N(CCCNCc2cc(OC)c(OC)c(OC)c2)C4=O)cc(OC)c1OC | TGI | 2.34 µM |

###

# Tested on: NCI-H23 lung
# Test: NCI tumour cell line growth inhibition, 48 h

| Compound | Target system | Readout units | Censoring operator | TGI |
| --- | --- | --- | --- | --- |
| C=CCc1cccc(/C=N/NC(=O)CN2CCN(Cc3ccccc3)CC2)c1O | NCI-H23 lung | µM | = | 16.5 |
| Cc1cccc(C(C)C)c1NC(=O)CC1Sc2ccccc2NC1=O (stereo unspecified) | NCI-H23 lung | µM | > | 100 |
| COc1ccc(CCN=C2OCc3ccccc32)cc1OC | NCI-H23 lung | µM | > | 100 |
| Cn1c(=O)c2c(no[n+]2[O-])c2ccccc21 | NCI-H23 lung | µM | = | 34.8 |
| O=C(CC(O)(C(F)(F)F)C(F)(F)F)c1cc(CC(=O)C(O)(C(F)(F)F)C(F)(F)F)cc(CC(=O)C(O)(C(F)(F)F)C(F)(F)F)c1 | NCI-H23 lung | µM | = | 4.06 |
| Cc1csc(Nc2nc(-c3cccc(Br)c3)nc(C(Cl)(Cl)Cl)n2)n1 | NCI-H23 lung | µM | > | 100 |

###

# System: MOLT-4 leukemia
# Test: NCI tumour cell line growth inhibition, 48 h
Endpoint: TGI

| Molecule | Experimental result |
| --- | --- |
| COC(=O)CN(C)P(=O)(N1CC1)N1CC1 | > 100 µM |
| O=C1c2ccccc2C2(O)c3cc4ccccc4cc3OC12O (stereo not drawn) | > 100 µM |
| CC#C[P+](c1ccccc1)(c1ccccc1)c1ccccc1 | 5.31 µM |
| CCOC(=O)C1(c2ccccc2)CCC(=O)CC1 | > 100 µM |
| COc1cccc(/C=N/[N-]C(=O)c2ccncc2)c1[O-].[Cu+2].[OH3+] | > 100 µM |
| N#C/C=C(\c1ccc([N+](=O)[O-])cc1)n1nnc2cc(Cl)c(Cl)cc21 | > 100 µM |
| C1CSCCSCCS1 | > 100 µM |
| COc1ccc(C(=O)/C=C/c2ccncc2)cc1OC | 86.7 µM |
| COc1ccc(-c2cc(-c3ccccc3)c(C#N)c(=O)n2C2OC(CO)C(O)C(O)C2O)cc1 (stereo not drawn) | > 100 µM |
| COc1ccc(OC)c(N2C(=O)CSC2c2cc(OC)c(OC)c(OC)c2)c1 (stereo not drawn) | > 100 µM |
| Cc1ccc(-c2c3c(n(C4OC(CO)C(O)C(O)C4O)c(=S)c2C#N)CC(C)(C)CC3=O)cc1 (stereo not drawn) | > 100 µM |
| O=C(CCc1cc(O)cc(O)c1)NCCc1cc(O)cc(O)c1 | > 100 µM |
| O=[N+]([O-])c1ccc(S(=O)(=O)N=Ic2ccccc2)cc1 | > 100 µM |

###

Quick reference for log10 of TGI among some compounds
# Tested on: HCC-2998 colon
# Test: NCI tumour cell line growth inhibition, 48 h
Endpoint: log10 of TGI (log10 of the value in µM)

| Compound | Endpoint | Experimental result |
| --- | --- | --- |
| COc1cc(CNCCCN2C(=O)c3ccc4c5c(ccc(c35)C2=O)C(=O)N(CCCNCc2cc(OC)c(OC)c(OC)c2)C4=O)cc(OC)c1OC | log10 of TGI | -0.04 |
| C=CCc1cccc(/C=N/NC(=O)CN2CCN(Cc3ccccc3)CC2)c1O | log10 of TGI | 1.23 |
| COc1cc2c(cc1O)C1C(O)C(O)C=C3CCN(C2)C31 (configuration not stated) | log10 of TGI | 0.93 |
| COc1cc(-c2nn(-c3cccc(NC(=O)Nc4ccc(Cl)c(Cl)c4)c3)cc2-c2ccncc2)ccc1Cl | log10 of TGI | 0.79 |
| N#CC1(C#N)C2CCCCC23OC(=N)C1(C#N)C(c1ccccc1)O3 (configuration not stated) | log10 of TGI | 1.46 |
| COc1ccc(OC)c(C2Cc3cnc4nc(N)nc(N)c4c3C2)c1 (configuration not stated) | log10 of TGI | 1.62 |
| CCCCCCNC(=O)c1nc(-c2ccccc2)oc1Cc1ccc(OP(=O)(O)O)cc1 | log10 of TGI | 1.52 |
| Cc1ccc(-c2cc(-c3ccc(Cl)cc3)nc(/N=C3\C(=O)N(CN4CCOCC4)c4ccc(Cl)cc43)n2)cc1 | log10 of TGI | 1.56 |
| Cc1ccc(/C=C/c2c(C(=O)/C=C/c3ccc(C(F)(F)F)cc3)c(C)nc3ccccc23)cc1 | log10 of TGI | 0.45 |

###

# Tested on: NCI-H23 lung
# Test: NCI tumour cell line growth inhibition, 48 h; in the data active means GI50 below about 0.43 µM; inactive means the rest
Outcomes: active, inactive

| Compound | Cat |
| --- | --- |
| COc1ccc2[nH]cc(-c3nc(-c4c[nH]c5ncccc45)cs3)c2c1 | inactive |
| CCCn1c(N)c(C(=O)N/N=C(/C)c2cc3cccc(OC)c3o2)sc1=S | inactive |
| Nc1c(C(=O)Nc2cccc(Br)c2)sc2nc3c(cc12)C(=O)CCC3 | inactive |
| C=CCCCCCCCCCCC1(O)C=CC2=[N+](CCCCCN=C(N)N)CCCN21 (stereo not given) | inactive |
| COc1ccc(-c2oc(=O)ccc2-c2cc(OC)c(OC)c(OC)c2)cc1F | inactive |
| CCN(CC)c1nc(-c2ccc(Cl)cc2Cl)nc2ccccc12 | inactive |
| N=c1ccn2c(n1)OC1C(O)C(CO)OC12 (stereo not given) | active |
| Cc1csc(Nc2nc(-c3cccc(Br)c3)nc(C(Cl)(Cl)Cl)n2)n1 | inactive |
| CCOc1ccc2nc(S/C(=C/C=C(C#N)C#N)c3ccc(C)cc3)sc2c1 | inactive |
| COC12C=C/C(=C(/C(=O)OCc3ccncc3)C(=O)CCCCCCCCC3(OC)C=C/C(=C(/C(=O)OCc4ccncc4)C(=O)CCCCCCCC1)O3)O2 | active |
| COc1cc(-c2nn(-c3cccc(NC(=O)Nc4ccc(Cl)c(Cl)c4)c3)cc2-c2ccncc2)ccc1Cl | inactive |
| CC1(C)OCCn2c1nc1c(N3CCOCC3)nc(-c3cnc(N)nc3)nc12 | inactive |
| COc1ccncc1C#Cc1cncc(C(=O)Nc2ccc(CN3CCN(C)CC3)c(C(F)(F)F)c2)c1 | inactive |
| C=CC(=O)N1CCC(C2CCNc3c(C(N)=O)c(-c4ccc(Oc5ccccc5)cc4)nn32)CC1 (stereo not given) | inactive |
| CS(=O)(=O)CCCn1c(=O)c(Oc2ccc(F)cc2F)cc2cnc(NC3CCOCC3)nc21 | inactive |

###

# System: UACC-62 melanoma
# Test: NCI tumour cell line growth inhibition, 48 h
Quick reference for TGI among some compounds

| Compound | TGI |
| --- | --- |
| CCCC(O)C(NC(=O)CCl)C(=O)O (stereo not given) | > 100 µM |
| COc1ccc2[nH]cc(-c3nc(-c4c[nH]c5ncccc45)cs3)c2c1 | > 100 µM |
| C[C@@H]1C[C@](O)([C@@H](C)Cl)C(=O)O[C@@H]2CCN3CC=C(COC(=O)[C@]1(C)O)[C@H]23 | > 100 µM |
| CCOC(=O)C(C)(C)Oc1ccc2c(C)c(-c3ccc(Cl)cc3)c(=O)oc2c1 | > 100 µM |
| CCc1nc2ccc(N=NN(C)C)cc2[nH]1 | > 100 µM |
| CCOC(=O)NC(=O)c1cn(CCOC(=O)NCCCCCCNC(=O)OCCn2cc(C(=O)NC(=O)OCC)c(=O)[nH]c2=O)c(=O)[nH]c1=O | > 100 µM |
| O=C(O)[C@H](NS(=O)(=O)c1ccc2ccccc2c1)c1ccccc1 | > 100 µM |
| O=c1c2ccccc2sc2cccc(NCCCN3CCN(CCCNc4cccc5sc6ccccc6c(=O)c45)CC3)c12 | > 100 µM |
| COC1[C@@H](OC(C)=O)[C@@H](NC(=O)C(Cl)(Cl)Cl)C(I)[C@@H](N2C(=O)c3ccccc3C2=O)[C@H]1OC (stereo not given in full) | > 100 µM |
| COc1ccc(N2C(=O)CS(=O)(=O)C2c2cccc(Oc3ccccc3)c2)cc1 (stereo not given) | 6.25 µM |
| Nc1c(C(=O)Nc2cccc(Br)c2)sc2nc3c(cc12)C(=O)CCC3 | > 100 µM |
| O=C(Nc1cc(Cl)ccc1Cl)c1cc2cccc(Cl)c2oc1=O | > 100 µM |
| CC[C@]1(Cc2ccc(OC)c(OC)c2)[C@@H]2C[C@@H](C3OCCO3)ON2O[C@H](OC2CCCC2(c2ccccc2)c2ccccc2)[C@@H]1OC(C)=O (stereo not given in full) | > 100 µM |
| CCOC(=O)c1csc(NC(=O)CN2CCN(C)CC2)n1 | > 100 µM |
| CCCCn1c(C)c2c(c1C)C(=O)N(CC(O)CN1CCc3ccccc3C1)C2=O (stereo not given) | > 100 µM |
| CCOC(=O)c1ccc(C(=O)/C(C#N)=C2\CCCN2C)[nH]1 | > 100 µM |
| CC#C[P+](c1ccccc1)(c1ccccc1)c1ccccc1 | 14.8 µM |
| CC(CCC#N)(CCC#N)C(=O)CC(O)(C(F)(F)F)C(F)(F)F | 19.8 µM |
| COc1cc(C2SCC(=O)N2c2ccc(Cl)c(Cl)c2)cc(OC)c1OC (stereo not given) | > 21.9 µM |
| C=Cc1c(C)c2cc3nc(cc4[nH]c(cc5nc(cc1[nH]2)C(C)=C5CCC(=O)O)c(CCC(=O)OC)c4C)[C@@]1(C)C3=CC=C(C(=O)OC)[C@H]1C(=O)OC | 2.8 µM |
